We begin with pKi values for Aminopeptidase N (Sus scrofa), as collected from the published literature.
pKi: −log10 of the molar value.
property_label: pKi

Record excerpt, results attached:
CC(C)C[C@H](N)CS | 7.66
N[C@H](CCS(=O)(=O)O)[C@H](S)C(=O)N[C@@H](Cc1ccc(O)cc1)C(=O)N[C@@H](CC(=O)O)C(=O)O | 4.32

(A) N[C@H](CS)CCCC(=O)NO
(B) NC(CCc1ccccc1)P(=O)(O)CC(Cc1ccccc1)C(=O)O (configuration not stated)
stdin: # compare pKi for A vs B ; return the one with the smaller value Response format: the label of the selected entry.
stdout: B

(a) CC[C@@H](C)[C@H](NC(=O)C(S)C(N)CCS(N)(=O)=O)C(=O)N[C@@H](CC(=O)O)C(=O)O (some centres not stated)
(b) CC(C)CC(N)P(=O)(O)CC(Cc1ccccc1)C(=O)O (configuration not stated)
stdin: Between a and b , which one shows the larger pKi value? Response format: the label of the selected entry.
stdout: b
(b: 6.43, a: 4.55)

(a) CC[C@@H](C)[C@H](NC(=O)[C@@H](S)[C@H](N)CCS(=O)(=O)O)C(=O)N[C@@H](CC(=O)O)C(N)=O
(b) NC1CCc2c(ccc3ccccc23)CC1=O (racemic)
(c) CC(C)CCNC(=O)[C@H](S)[C@@H](N)Cc1ccccc1
stdin: Arrange the 3 entries by pKi so the values rise. Present the labels in the sequence the task asks for.
stdout: a, c, b
(a: 4.29, c: 4.49, b: 7.40)
